- measured_on: Prostaglandin G/H synthase 1 (Ovis aries, UniProt P05979)
- Sequence (P05979 whole entry): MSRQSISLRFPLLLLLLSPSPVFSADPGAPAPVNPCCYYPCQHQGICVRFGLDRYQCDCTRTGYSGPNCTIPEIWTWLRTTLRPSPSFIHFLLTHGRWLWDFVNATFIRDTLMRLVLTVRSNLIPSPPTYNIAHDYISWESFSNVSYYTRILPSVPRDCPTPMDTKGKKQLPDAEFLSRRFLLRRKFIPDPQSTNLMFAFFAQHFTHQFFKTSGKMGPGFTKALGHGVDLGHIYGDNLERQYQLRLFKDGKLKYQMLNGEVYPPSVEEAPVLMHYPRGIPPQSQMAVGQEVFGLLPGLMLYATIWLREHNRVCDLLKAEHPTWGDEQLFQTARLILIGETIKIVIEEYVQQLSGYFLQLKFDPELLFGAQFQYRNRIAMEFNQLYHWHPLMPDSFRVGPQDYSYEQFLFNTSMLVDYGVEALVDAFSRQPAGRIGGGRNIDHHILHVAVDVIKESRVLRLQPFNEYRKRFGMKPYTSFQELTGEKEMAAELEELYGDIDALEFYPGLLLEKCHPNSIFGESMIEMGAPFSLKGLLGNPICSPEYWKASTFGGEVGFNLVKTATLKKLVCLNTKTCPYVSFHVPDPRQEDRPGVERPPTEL
assay_readout: IC50 (µM)

mol_smiles: O=c1oc2ccccc2cc1-c1nnc(-c2ccc(Cl)cc2)o1
value_observed: 35
--
mol_smiles: O=c1oc2ccccc2cc1-c1nnc(-c2ccc(Cl)cc2Cl)o1
value_observed: 41.6

* * *

- measured_on: Prostaglandin G/H synthase 2 (Ovis aries, UniProt P79208)
- Sequence (P79208 whole entry): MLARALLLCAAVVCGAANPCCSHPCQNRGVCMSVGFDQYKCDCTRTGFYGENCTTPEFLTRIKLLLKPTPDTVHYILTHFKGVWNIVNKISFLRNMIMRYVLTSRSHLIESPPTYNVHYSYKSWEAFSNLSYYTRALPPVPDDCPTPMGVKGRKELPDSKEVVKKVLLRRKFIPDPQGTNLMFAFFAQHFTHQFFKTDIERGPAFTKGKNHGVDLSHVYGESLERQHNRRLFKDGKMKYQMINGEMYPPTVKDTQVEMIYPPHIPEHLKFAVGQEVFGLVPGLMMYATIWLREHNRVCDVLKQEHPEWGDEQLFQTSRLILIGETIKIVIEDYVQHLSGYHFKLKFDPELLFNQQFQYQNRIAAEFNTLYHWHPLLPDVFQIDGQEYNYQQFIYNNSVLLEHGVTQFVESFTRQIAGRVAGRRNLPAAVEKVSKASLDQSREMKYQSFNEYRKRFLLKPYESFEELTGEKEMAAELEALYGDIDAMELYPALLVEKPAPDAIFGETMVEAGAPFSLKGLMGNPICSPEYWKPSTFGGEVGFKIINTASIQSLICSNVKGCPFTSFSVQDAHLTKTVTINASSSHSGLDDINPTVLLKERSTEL
pIC50: −log10 of the molar value.
assay_readout: pIC50

(I) O=c1oc2ccccc2cc1-c1nnc(-c2ccc(Cl)cc2)o1
(II) O=c1oc2ccccc2cc1-c1nnc(-c2ccc(Cl)cc2Cl)o1
Incoming: Looking only at measured pIC50, which entry is lower, I or II ? Select an item and report its label.
Outgoing: I
(I: 5.92, II: 6.40)
